target or test system: T1, recombinant human 4R0N tau (human, UniProt P10636 2-758)
T1 construct: also called P10636-6
T1 sequence (P10636 other isoform, or with tags, fused parts or gaps limits assumed): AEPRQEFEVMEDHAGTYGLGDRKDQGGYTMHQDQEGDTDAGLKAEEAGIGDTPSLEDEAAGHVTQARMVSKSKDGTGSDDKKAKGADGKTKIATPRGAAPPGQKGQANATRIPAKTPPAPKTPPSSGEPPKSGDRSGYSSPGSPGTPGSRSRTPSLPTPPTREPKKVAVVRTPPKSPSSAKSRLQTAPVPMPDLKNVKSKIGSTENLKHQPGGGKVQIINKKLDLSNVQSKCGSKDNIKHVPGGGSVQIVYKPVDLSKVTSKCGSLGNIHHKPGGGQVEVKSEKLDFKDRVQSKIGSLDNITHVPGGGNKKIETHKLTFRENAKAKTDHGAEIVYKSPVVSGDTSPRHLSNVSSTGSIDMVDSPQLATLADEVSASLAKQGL
method summary: SPR, Biacore T200, antibody captured on anti-human Fc, tau as analyte, 1:1 fit
# Kd annotations
Express the result in nM but write the number alone.

Some entries whose results are on file:
binder	Kd [nM]
h3D6VHvb8/L2-DIM8 (antibody, V domains shown, Humanized antibody with human Fc; also called hu3D6VHv1bA11 D60E / hu3D6VLv2 L37Q) VH: EVQLVQSGAEVVKPGATVKISCKASGFNIKDYYLHWVRQRPGQGLEWIGWIDPENGDTVYEPKFQGRATITADTSTDTAYLQLGSLTSEDTAVYFCSTLDFWGQGTLVTVSS VL: DVVMTQSPLSLPVTLGQPASISCKSSQSLLDSDGKTYLNWLQQRPGQSPRRLIYLVSKLDSGVPDRFSGSGSGTDFTLKISRVEAEDVGVYYCWQGTHFPYTFGGGTKLEIK	0.427
hu3D6VHv1bA11/L2-DIM9 (antibody, V domains shown, Humanized antibody with human Fc; also called hu3D6VHv1bA11 / hu3D6VLv2 S52G) VH: EVQLVQSGAEVVKPGATVKISCKASGFNIKDYYLHWVRQRPGQGLEWIGWIDPENGDTVYDPKFQGRATITADTSTDTAYLQLGSLTSEDTAVYFCSTLDFWGQGTLVTVSS VL: DVVMTQSPLSLPVTLGQPASISCKSSQSLLDSDGKTYLNWLLQRPGQSPRRLIYLVGKLDSGVPDRFSGSGSGTDFTLKISRVEAEDVGVYYCWQGTHFPYTFGGGTKLEIK	0.16

Here is the next item to consider.
Query :: Please give the measured Kd for this binder: hu3D6VHv1bA11/L2-DIM5 (antibody, V domains shown, Humanized antibody with human Fc) VH: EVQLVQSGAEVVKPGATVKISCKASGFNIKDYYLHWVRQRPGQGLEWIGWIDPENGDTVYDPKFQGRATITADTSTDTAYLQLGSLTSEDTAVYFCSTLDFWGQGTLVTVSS VL: DVVMTQSPLSLPVTLGQPASISCKSSQSLLDSDGKTYLNWLQQRPGQSPRRLIYLVGKTDSGVPDRFSGSGSGTDFTLKISRVEAEDVGVYYCWQGTHFPYTFGGGTKLEIK
Result :: 0.183
